biological target: T1, huCDH19(44-772), Flag-tagged, on 293T cells (human, UniProt Q9H159 44-772); assay: FACS, transfected 293T;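 further: antibody binding to chimera-expressing cells with 2 mM CaCl2 present, cell-bound Alexa647-labelled antibody read by flow cytometry, mock-transfected cells serving as control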
T1 construct: Expressed with native leader (1-43) followed by a Flag tag; leader left out; also called Hu EC1-5
PROPERTY_MEASURED: binding result

INSERT INTO assay_data (binder, result) VALUES
  ('hu anti-<huCDH19> 23A10.3 (1-474)(L92Q) VH::huIgG1z / 23A10.3 (1-231)(C42S) VL::huLLC-C2 (Ab ID 14077) (antibody, V domains shown, Engineered variant of 23A10) VH: QVQLVESGGGVVQPGRSLRLSCAASGFTFSRYGIHWVRQAPGKGLEWVAVIWYDGSNKYYADSVKGRFTISRDNSKNTLYLQMNSLRAEDSAVYYCARRAGIPGTTGYYYGMDVWGQGTTVTVSS VL: SYELTQPPSVSVSPGQTASITCSGDRLGEKYVSWYQQKPGQSPILVIYQDNKWPSGIPERFSGSNSGNTATLTISGTQAMDEADYYCQAWDSSTVVFGGGTKLTVLG', 'binds');
